Tested on: SK-OV-3 ovarian
TEST METHOD NOTES: NCI tumour cell line growth inhibition, 48 h
GI50 values for the compounds below.

>  <COMPOUND>
O=C(N/N=C/c1cc2ccccc2c2ccccc12)c1cc(O)c(O)c(O)c1

>  <GI50>
4.31 µM

$$$$
>  <COMPOUND>
O=[N+]([O-])c1ccc(N(CCO)CCO)c2c1no[n+]2[O-]

>  <GI50>
1.21 µM

$$$$
>  <COMPOUND>
COC(=O)/C(=C/N1CCN(C(=O)c2ccco2)C1=S)C(C)=O

>  <GI50>
31.3 µM

$$$$
>  <COMPOUND>
Cc1cc(N2CCN(C)CC2)nc(NC2CCCC(Nc3ccnc4cc(Cl)ccc34)C2)n1 (centres undefined)

>  <GI50>
3.35 µM

$$$$

====

Tested on: OVCAR-8 ovarian
TEST METHOD NOTES: NCI tumour cell line growth inhibition, 48 h
ENDPOINT NAME: TGI

>  <MOLECULE>
COc1ccc(OC)c(C2CCc3cnc4nc(N)nc(N)c4c3C2)c1 (stereo not drawn)

>  <REPORTED>
> 100 µM

$$$$
>  <MOLECULE>
CCOC(=O)C(=Cc1ccc(Br)cc1)C(=O)OCC

>  <REPORTED>
6.79 µM

$$$$
>  <MOLECULE>
Nc1nc(=O)n(C2OC(CO)C(O)C2O)cc1F (stereo not drawn)

>  <REPORTED>
> 100 µM

$$$$
>  <MOLECULE>
Fc1cccc(F)c1C1SCc2nc3ccccc3n21 (stereo not drawn)

>  <REPORTED>
> 100 µM

$$$$
>  <MOLECULE>
C/C=C(/C)C(=O)OC1C=C(CO)C(=O)C(OC(=O)/C(C)=C\C)C1C(C)C (stereo not drawn)

>  <REPORTED>
2.21 µM

$$$$
>  <MOLECULE>
Cc1ccnc2c1NC(=O)c1cccnc1N2C1CC1

>  <REPORTED>
> 100 µM

$$$$
>  <MOLECULE>
C[C@]12CC[C@H]3[C@@H](C[C@@H]4SC(Nc5cccc(F)c5)=N[C@@]45CC(=O)CC[C@]35C)[C@@H]1CCC2=O

>  <REPORTED>
7.98 µM

$$$$
>  <MOLECULE>
O=C(O)C1Cc2nc[nH]c2CN1 (stereo not drawn)

>  <REPORTED>
> 100 µM

$$$$
>  <MOLECULE>
COC(=O)c1c2c(c(C)[n+]([O-])c1C)C(=O)C(NCc1ccc(F)c(Cl)c1)=CC2=O

>  <REPORTED>
13.9 µM

$$$$
>  <MOLECULE>
CC(=O)N1c2ccccc2C23CCN4CC5=CCOC(O)C(C5CC42)C13 (stereo not drawn)

>  <REPORTED>
> 100 µM

$$$$
>  <MOLECULE>
O=C1CCC(=O)c2cc(Br)ccc2N1

>  <REPORTED>
> 100 µM

$$$$
>  <MOLECULE>
Cn1ncc2c(NCCc3ccccc3)nc(Cl)nc21

>  <REPORTED>
> 100 µM

$$$$
>  <MOLECULE>
Cc1cc2c3c(ccc4ncc(c43)CN2c2ccc(NS(C)(=O)=O)cc2)[nH]1

>  <REPORTED>
> 100 µM

$$$$
>  <MOLECULE>
COc1cc2cc(C(=O)O)[nH]c2cc1OCc1ccccc1

>  <REPORTED>
> 100 µM

$$$$
>  <MOLECULE>
Cc1ccc(S(=O)(=O)C2=c3ncccc3=C3C(=O)c4ccccc4C(=O)C32)cc1 (stereo not drawn)

>  <REPORTED>
> 100 µM

$$$$
>  <MOLECULE>
CC[C@H](CCCCC1CC[C@@H]2CC(=O)C[C@H]12)OC (stereo partly drawn)

>  <REPORTED>
> 100 µM

$$$$
>  <MOLECULE>
Cc1oc2c(c1C(=O)c1ccccc1)C(=O)c1ccccc1C2=O

>  <REPORTED>
18.6 µM

$$$$
>  <MOLECULE>
N#Cc1c(NC(=O)CCC(=O)O)ccc2ccccc12

>  <REPORTED>
> 100 µM

$$$$
>  <MOLECULE>
COC(CNC(=O)C(C)NC(=O)C(C)NC(=O)c1ccccc1)OC (stereo not drawn)

>  <REPORTED>
> 100 µM

$$$$
>  <MOLECULE>
CCCCNc1nc(SC)nc2nc[nH]c12

>  <REPORTED>
> 100 µM

$$$$
>  <MOLECULE>
COC(=O)/C(=C/N1CCN(C(=O)c2ccco2)C1=S)C(C)=O

>  <REPORTED>
88.5 µM

$$$$
>  <MOLECULE>
CN(C)CCCC1(c2ccc(F)cc2)OCc2cc(-c3ccc4cc[nH]c4c3)ccc21 (stereo not drawn)

>  <REPORTED>
13.8 µM

$$$$
>  <MOLECULE>
CCC(C)(C)NC1=C(NC(C)=O)C(=O)c2ccccc2C1=O

>  <REPORTED>
> 75 µM

$$$$

====

Tested on: CCRF-CEM leukemia
TEST METHOD NOTES: NCI tumour cell line growth inhibition, 48 h; in the data active means GI50 below about 0.43 µM; inactive means the rest
Where a SMILES comes first, the peptide text is derived from it. [ ]: non-standard residue; d: D form. 2Nal = N[CH](Cc1ccc2ccccc2c1)C(=O)O
Outcomes: active, inactive

>  <COMPOUND>
COc1cc(/C=C2\C(=O)N(c3c(Cl)cccc3Cl)c3ccccc32)cc(OC)c1O

>  <CATEGORY LABEL>
inactive

$$$$
>  <COMPOUND>
C/C=C(/C)C(=O)OC1C=C(CO)C(=O)C(OC(=O)/C(C)=C\C)C1C(C)C (stereo not drawn)

>  <CATEGORY LABEL>
active

$$$$
>  <COMPOUND>
CC(NC(=O)C(N)Cc1ccccc1)C(=O)NC(Cc1ccc(O)cc1)C(=O)NC(Cc1c[nH]c2ccccc12)C(=O)NC(CCCCN)C(=O)NC(C(=O)NC(C)C(=O)NC(Cc1ccc2ccccc2c1)C(N)=O)C(C)C (stereo not drawn) (H-FAYWKVA[2Nal]-NH2; configuration not given here)

>  <CATEGORY LABEL>
inactive

$$$$

====

System: A549 NSCLC
TEST METHOD NOTES: NCI tumour cell line growth inhibition, 48 h

>  <MOLECULE>
C=CCSc1n[nH]c(-c2cccs2)n1

>  <SYSTEM UNDER TEST>
A549 NSCLC

>  <GI50>
> 100000 nM

$$$$
>  <MOLECULE>
NC(=O)c1c(OCc2c(F)cc(Br)cc2F)nsc1NC(=O)NCCCCN1CCCC1

>  <SYSTEM UNDER TEST>
A549 NSCLC

>  <GI50>
2970 nM

$$$$
>  <MOLECULE>
C[C@]12CC[C@H]3[C@@H](C[C@@H]4SC(Nc5cccc(F)c5)=N[C@@]45CC(=O)CC[C@]35C)[C@@H]1CCC2=O

>  <SYSTEM UNDER TEST>
A549 NSCLC

>  <GI50>
2580 nM

$$$$
>  <MOLECULE>
O=[N+]([O-])c1ccc(N(CCO)CCO)c2c1no[n+]2[O-]

>  <SYSTEM UNDER TEST>
A549 NSCLC

>  <GI50>
1830 nM

$$$$
>  <MOLECULE>
O=C(Oc1ccc([N+](=O)[O-])cc1)N1CCC(C(O)(c2ccc3c(c2)OCO3)c2ccc3c(c2)OCO3)CC1

>  <SYSTEM UNDER TEST>
A549 NSCLC

>  <GI50>
> 100000 nM

$$$$
>  <MOLECULE>
COCCOC(C)C(/C=N/NC(N)=S)=N/NC(N)=S (stereo not given)

>  <SYSTEM UNDER TEST>
A549 NSCLC

>  <GI50>
> 100000 nM

$$$$
>  <MOLECULE>
O=C1C(Nc2ccccn2)=C(I)C(=O)c2ncccc21

>  <SYSTEM UNDER TEST>
A549 NSCLC

>  <GI50>
1280 nM

$$$$
>  <MOLECULE>
CN(C)CCCC1(c2ccc(F)cc2)OCc2cc(-c3ccc4cc[nH]c4c3)ccc21 (stereo not given)

>  <SYSTEM UNDER TEST>
A549 NSCLC

>  <GI50>
2110 nM

$$$$
>  <MOLECULE>
CS(=O)(=O)c1ccc(C(F)(F)F)cc1NC(=O)Nc1cnc(Oc2ccc(-c3cc(Cl)cnc3N)cc2)nc1

>  <SYSTEM UNDER TEST>
A549 NSCLC

>  <GI50>
3070 nM

$$$$
>  <MOLECULE>
O=C(N/N=C/c1cc2ccccc2c2ccccc12)c1cc(O)c(O)c(O)c1

>  <SYSTEM UNDER TEST>
A549 NSCLC

>  <GI50>
12700 nM

$$$$

====

Listing of entries alongside the reported TGI.
System: HCC-2998 colon
TEST METHOD NOTES: NCI tumour cell line growth inhibition, 48 h

>  <COMPOUND>
COc1cc2c(cc1OC)-c1c(cc(OC)c(OC)c1OC)C2=O

>  <TGI>
> 100 µM

$$$$
>  <COMPOUND>
COC(=O)C1CCc2c(OC)ccc(OC)c2C1=O (stereo not drawn)

>  <TGI>
> 100 µM

$$$$
>  <COMPOUND>
CS(=O)(=O)C(=Cc1ccccc1Cl)S(C)(=O)=O

>  <TGI>
> 100 µM

$$$$
>  <COMPOUND>
CCC(=S)N(C)O

>  <TGI>
> 95.7 µM

$$$$
>  <COMPOUND>
COc1ccc(-c2c(N)[n+]([O-])c3cc(C)c(C)cc3[n+]2[O-])cc1OC

>  <TGI>
> 100 µM

$$$$
>  <COMPOUND>
Cc1ccc(NC(=O)SCCC(=O)O)cc1NC(=O)SCCC(=O)O

>  <TGI>
> 100 µM

$$$$
>  <COMPOUND>
CCN(CC)CC(C)(C)C(=O)/C=C/c1ccc(C)cc1

>  <TGI>
21.6 µM

$$$$
>  <COMPOUND>
Cc1cc2c3c(ccc4ncc(c43)CN2c2ccc(NS(C)(=O)=O)cc2)[nH]1

>  <TGI>
> 100 µM

$$$$
>  <COMPOUND>
CN/N=C(\C)CC(=O)Nc1cccc(Cl)c1C

>  <TGI>
> 100 µM

$$$$
>  <COMPOUND>
N/C(=N\C(=S)N1CCCCC1)N1CCCCC1

>  <TGI>
> 100 µM

$$$$
>  <COMPOUND>
C[C@H](CCc1nc(C#N)c(N)o1)[C@H]1CC[C@H]2[C@@H]3[C@@H](O)CC4C[C@@H](O)CC[C@]4(C)[C@H]3C[C@@H](O)[C@]12C (stereo partly drawn)

>  <TGI>
36.5 µM

$$$$
>  <COMPOUND>
CC(C)(C)OC(=O)C(C1NC(C(=O)O)C(C)(C)S1)N1C(=O)c2ccccc2C1=O (stereo not drawn)

>  <TGI>
> 100 µM

$$$$
>  <COMPOUND>
O=C(Oc1ccc([N+](=O)[O-])cc1)N1CCC(C(O)(c2ccc3c(c2)OCO3)c2ccc3c(c2)OCO3)CC1

>  <TGI>
> 100 µM

$$$$
>  <COMPOUND>
COc1cc(OC)c(/C=N/N=C(\N)NO)c(OC)c1

>  <TGI>
> 100 µM

$$$$
>  <COMPOUND>
COC(=O)C1=NN2c3ccccc3CN([C@@H](C)c3ccccc3)C(=O)[C@@H]2C1

>  <TGI>
> 100 µM

$$$$
>  <COMPOUND>
CCNC1CC(C(C)(C)NCC)CC=C1C (stereo not drawn)

>  <TGI>
> 100 µM

$$$$
>  <COMPOUND>
C=C1CC2(OC1=O)c1ccccc1CCc1ccccc12

>  <TGI>
6.51 µM

$$$$
>  <COMPOUND>
CN(C)CC1(C)CC/C(=C\c2ccc3c(c2)OCO3)C1=O (stereo not drawn)

>  <TGI>
> 100 µM

$$$$
